Recorded gcPBM binding intensity (ln) by entry
- Test system: PfAP2-HC AP2 domain (GST-tagged)
- assay name: gcPBM binding intensity (ln(normalized median fluorescence intensity)); higher = stronger DNA binding
Over roughly 25,000 sequences, “ln(normalized median fluorescence intensity)” has its median near 9.7; the highest 2% begin near 11. Only a selection was taken, and the highest values are over-represented in it overall.
Respond using a number only.

TAACTTGAATGGATATGTACATATATATATATATAT [XGTACX_site5990]; 10
AAGAAAAAATGATGAATAGAGATCAAATCTATATAT [TGCATGCA_negctrl_site29]; 9.65
ATACATCAAGGACACACACACACACGCACACGCACA [CACACA_site6310]; 10.7

query: Determine its reported gcPBM binding intensity (ln): TAGACTCCCAGACACACACACACACCCATATAATAT [CACACA_site593]
result: 10.5

query: Tell me measured gcPBM binding intensity (ln) for ATTCTATATGTTACATAAACCTATATTTTTTTTTTT [CACACA_negctrl_site860] please.
result: 9.58

Where these numbers come from: the supplement of paper PMC11417369
